Test system: B. casidae strain 2.2N
Experiment: microbe, parasite or virus in culture
Type: cell-based, Burkholderia casidae
Details: Burkholderia, 2.2N, read-out: Minimal Inhibitory Concentration
# reported MIC; entries follow

Reference set (7 entries):
moleculeSmiles | tgt | readoutType | observedMeasurement
CCN1CCN(C(=O)N[C@@H](C(=O)N[C@@H]2C(=O)N3C(C(=O)O)=C(CSc4nnnn4C)CS[C@H]23)c2ccc(O)cc2)C(=O)C1=O | B. casidae strain 2.2N | MIC | > 16 µg/mL
CN(C)[C@@H]1C(O)=C(C(N)=O)C(=O)[C@@]2(O)C(O)=C3C(=O)c4c(O)cccc4[C@@](C)(O)[C@H]3C[C@@H]12 | B. casidae strain 2.2N | MIC | > 8 µg/mL
NC[C@H]1O[C@H](O[C@H]2[C@H](O)[C@@H](O[C@H]3O[C@H](CO)[C@@H](O)[C@H](N)[C@H]3O)[C@H](N)C[C@@H]2N)[C@H](N)C[C@@H]1O | B. casidae strain 2.2N | MIC | > 16 µg/mL
CO/N=C(\C(=O)N[C@@H]1C(=O)N2C(C(=O)O)=C(COC(C)=O)CS[C@H]12)c1csc(N)n1 | B. casidae strain 2.2N | MIC | 64 µg/mL
NCC[C@H](O)C(=O)N[C@@H]1C[C@H](N)[C@@H](O[C@H]2O[C@H](CN)[C@@H](O)[C@H](O)[C@H]2O)[C@H](O)[C@H]1O[C@H]1O[C@H](CO)[C@@H](O)[C@H](N)[C@H]1O | B. casidae strain 2.2N | MIC | > 64 µg/mL
C[C@@H](O)[C@H]1C(=O)N2C(C(=O)O)=C(SCCN=CN)C[C@H]12 | B. casidae strain 2.2N | MIC | 16 µg/mL
CO/N=C(\C(=O)N[C@@H]1C(=O)N2C(C(=O)O)=CCS[C@H]12)c1csc(N)n1 | B. casidae strain 2.2N | MIC | 16 µg/mL

--- query ---
The recorded MIC for entry CO/N=C(\C(=O)N[C@@H]1C(=O)N2C(C(=O)O)=C(CSc3nc(=O)c(=O)[nH]n3C)CS[C@H]12)c1csc(N)n1 equals 128 µg/mL
